biological target: Voltage-gated inwardly rectifying potassium channel KCNH2 (Homo sapiens) (UniProt Q12809); assay: Human Ether-a-go-go-Related Gene (hERG) channel small molecule antagonists: fluorescence cell-based qHTS assay (AID 1671200); conditions: hERG-U2OS cells, FluxOR thallium flux fluorescence; series mostly up to 76.8 µM; also: nearly all actives have a fitted effect of over 50% in size; also: potency is read from the fitted curve at half-maximal effect
Sequence (Q12809 whole entry, looked up): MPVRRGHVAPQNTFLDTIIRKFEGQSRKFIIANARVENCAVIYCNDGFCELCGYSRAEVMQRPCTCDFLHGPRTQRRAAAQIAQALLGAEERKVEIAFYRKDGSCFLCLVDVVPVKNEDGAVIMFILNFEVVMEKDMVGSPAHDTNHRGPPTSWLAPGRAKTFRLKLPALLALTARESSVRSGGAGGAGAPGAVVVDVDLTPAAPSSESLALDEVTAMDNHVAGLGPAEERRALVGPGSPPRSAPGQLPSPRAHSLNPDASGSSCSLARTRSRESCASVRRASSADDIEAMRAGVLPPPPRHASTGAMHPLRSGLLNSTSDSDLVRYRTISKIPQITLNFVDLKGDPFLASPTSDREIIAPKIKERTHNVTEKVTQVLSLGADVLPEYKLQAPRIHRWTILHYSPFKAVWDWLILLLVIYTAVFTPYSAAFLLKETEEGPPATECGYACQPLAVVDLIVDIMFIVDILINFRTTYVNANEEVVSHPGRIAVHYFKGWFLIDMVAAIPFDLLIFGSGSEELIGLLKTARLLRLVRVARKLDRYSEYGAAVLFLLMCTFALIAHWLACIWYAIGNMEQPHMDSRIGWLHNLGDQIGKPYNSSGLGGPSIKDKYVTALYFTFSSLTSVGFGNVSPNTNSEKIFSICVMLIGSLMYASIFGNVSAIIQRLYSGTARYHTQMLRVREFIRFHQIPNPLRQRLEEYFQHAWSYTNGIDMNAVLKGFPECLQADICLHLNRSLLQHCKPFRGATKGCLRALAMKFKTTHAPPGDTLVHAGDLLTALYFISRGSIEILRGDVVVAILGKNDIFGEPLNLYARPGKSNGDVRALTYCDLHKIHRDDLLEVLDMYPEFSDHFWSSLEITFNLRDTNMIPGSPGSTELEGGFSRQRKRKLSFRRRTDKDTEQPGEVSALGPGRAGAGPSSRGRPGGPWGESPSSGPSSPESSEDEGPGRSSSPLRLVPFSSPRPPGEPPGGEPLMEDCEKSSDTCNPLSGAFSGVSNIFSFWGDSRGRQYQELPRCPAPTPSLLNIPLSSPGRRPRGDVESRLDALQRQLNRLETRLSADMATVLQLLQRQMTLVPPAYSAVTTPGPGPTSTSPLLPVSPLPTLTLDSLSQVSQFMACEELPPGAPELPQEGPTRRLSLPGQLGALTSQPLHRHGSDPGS
Inconclusive results are not listed. Active and inactive are the calls of the source. Calls follow the shape of the dose curve; as a rule, active = well fitted inhibition curve with a large enough effect in the repeat runs; inconclusive = weak or mixed curves; inactive = flat fitted curve, though single readings scatter.
MEASURED_PROPERTY: Potency

MOLECULE | MEASURED_VALUE
CCCCCCCCOC(=O)CCCCCCCCC(=O)OCCCCCCCC | inactive
CN(C)C(=O)NC1(c2ccccc2)CCN(CCC[C@]2(c3ccc(Cl)c(Cl)c3)CCCN(C(=O)c3ccccc3)C2)CC1 | 2.08 µM (active)
Nc1ccc(Oc2ccc(N)c(N)c2)cc1 | inactive
CCCOCCC | inactive
CCC(=O)c1ccc2c(c1)N(CCCN(C)C)c1ccccc1S2 | 9.52 µM (active)
COc1cc2c(cc1N)oc1ccccc12 | inactive
CCOC(=O)NCCC[Si](OCC)(OCC)OCC | inactive
C=CCc1cc(OC)c(O)c(C(=O)NCCO)c1 | inactive
CN1C(=O)CC(c2ccccc2)C1=O (configuration not stated) | inactive
FC(F)(F)C(Cl)(Cl)Cl | inactive
C=Cc1ccccc1 | inactive
CC/C=C\CCOC(=O)CCCCC | inactive
